The reported measurements were obtained from PubChem BioAssay AID1159580.

- protocol description: chemical genetic growth profiling, strain panel (AID 1159580);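 further: tested at 20 µM; growth read once vehicle control cultures reached saturation at 30 °C; 1 = growth at the plate median or of vehicle wells; lower values mean less growth of the strain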
- applied conditions: S. cerevisiae deletion strains, growth OD, locus YOL006C, strain TOP1
Among all 5,500 compounds or so, about 2,000 (36%) were called active. About 18% were inconclusive and are not listed. No stated cut-off is given here; in the data, active means normalized growth mostly below about 0.91 (no sharp cut-off); inconclusive means no clear call, values can overlap the other calls; inactive means mostly above about 0.92. This is one part of the list.
Select the correct class. Options are active, inactive and nothing else.

>>> discrete_label("COc1ccc(C[C@H](N)C(=O)N[C@@H]2[C@@H](CO)OC(n3cnc4c(N(C)C)ncnc43)[C@@H]2O)cc1 (stereo partly specified)")
"inactive"
>>> discrete_label("O=C(O)CNCP(=O)(O)O")
"inactive"
>>> discrete_label("NC(=O)c1cc[n+](CC2=C(C(=O)O)N3C(=O)C(NC(=O)C(c4ccccc4)S(=O)(=O)[O-])C3SC2)cc1 (stereo unspecified)")
"inactive"
>>> discrete_label("CCOC(=O)c1ccc(N)cc1")
"inactive"
>>> discrete_label("COc1cc(/C=C/C(=O)O)cc(OC)c1OC")
"inactive"
>>> discrete_label("COc1ccc(/C=C/C(=O)O)cc1OC")
"active"
>>> discrete_label("Cc1onc(-c2ccccc2Cl)c1C(=O)Nc1ccc(S(=O)(=O)Nc2nccs2)cc1")
"inactive"
>>> discrete_label("ON(Cc1c(F)cccc1Cl)Cc1c(F)cccc1Cl")
"inactive"

Record request — test call for O=C1CNC(=S)N1CCc1ccccn1 inactive

Record request — test call for COc1ccc(OC)c(S(=O)(=O)NCc2c(F)cccc2Cl)c1 inactive

Record request — test call for CC(=O)N[C@@H]1[C@@H](C(O)[C@H](O)CO)O[C@](O)(C(=O)O)C[C@@H]1O (stereo partly specified) inactive

----------
- protocol description: chemical genetic growth profiling, strain panel (AID 1159580);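 further: tested at 20 µM; growth read once vehicle control cultures reached saturation at 30 °C; 1 = growth at the plate median or of vehicle wells; lower values mean less growth of the strain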
- applied conditions: S. cerevisiae deletion strains, growth OD, locus YDL134C, strain PPH21, active compounds read low
Hit rate of the full screen: of about 5,500 compounds, about 2,000 (36%) were called active. Not shown: some 18% with an inconclusive outcome. The list shows a part of the results.
test readout: normalized growth
Returns: the value as a bare number; no unit string appended.

>>> assay_result("CCOC(=O)c1c(C)csc1N")
1.01
>>> assay_result("S=c1[nH]c2ccccc2s1")
0.985
>>> assay_result("O=c1cccc2n1C[C@H]1CNCC2C1")
1.03

Memo: O=C1NC(c2c(F)cccc2Cl)Nc2ccccc21 (stereo not drawn) , reported normalized growth: 1

Memo: COC(=O)c1ccc(-c2ccccc2F)cc1 , reported normalized growth: 0.974

Memo: O=S(=O)(c1cc(Br)c(Br)s1)N1CCCCC1 , reported normalized growth: 1.02

Memo: O=C1CN(/N=C\c2ccc([N+](=O)[O-])o2)C(=O)N1 , reported normalized growth: 1

Memo: O=C(Nc1ccc(Cl)cc1Cl)c1cnccn1 , reported normalized growth: 0.989

Memo: COC(=O)c1ccc([N+](=O)[O-])cc1Cl , reported normalized growth: 0.983

Memo: O=C1N=C(O)CN1/N=C\c1ccc(-c2ccc([N+](=O)[O-])cc2)o1 , reported normalized growth: 1.02

Memo: O=C1O[C@@H](CO)[C@H](O)[C@@H](O)[C@@H]1O , reported normalized growth: 1.01

Memo: O=C(O)CCNC(=S)Nc1cccc(C(F)(F)F)c1 , reported normalized growth: 0.983

Memo: CN1CCc2cccc3c2C1Cc1ccc(O)c(O)c1-3 (stereo not drawn) , reported normalized growth: 1.03
